Here, each record is paired with measured remaining at 10 min data.
- assay_notes: in vitro
- applied_conditions: pig, simulated intestinal fluid
Starred links: 1 amine or outer side, 2 acyl side, 3 side chain; linkers in the order of their positions; H or OH if unused. Non-standard residues stand in square brackets, D forms with d. Residues, ends and D or L forms follow the SMILES beside them. X1 = CC(C)C[C@H](NC(=S)[C@H](Cc1ccc(O)cc1)N[*:1])C(=O)[*:2]; X6 = O=C([C@H](Cc1ccc(O)cc1)NC(=S)[C@H]1CCCN1[*:1])[*:2]; X2 = CC(C)C[C@H](NC(=S)[C@@H](CC(C)C)N[*:1])C(=O)[*:2]; X3 = CC(C)C[C@H](N[*:1])C(=S)N[C@H](CC(C)C)C(=O)[*:2]; X5 = CC(C)C[C@H](NC(=S)[C@H](CC(C)C)N[*:1])C(=O)[*:2]; NMeY = CN[C@@H](Cc1ccc(O)cc1)C(=O)O; NMeL = CN[C@@H](CC(C)C)C(=O)O; dNMeL = CN[C@H](CC(C)C)C(=O)O

>  <molecule>
CC(C)C[C@@H]1NC(=O)[C@@H](CC(C)C)NC(=S)[C@H](CC(C)C)NC(=O)[C@H](Cc2ccc(O)cc2)NC(=O)[C@H]2CCCN2C(=O)[C@H](CC(C)C)NC1=O [10f] (cyclo(LL[dP]Y[X3]))

>  <remaining at 10 min>
80.9%

$$$$
>  <molecule>
CC(C)C[C@@H]1NC(=O)[C@H](Cc2ccc(O)cc2)NC(=O)[C@H]2CCCN2C(=O)[C@H](CC(C)C)NC(=O)[C@H](CC(C)C)N(C)C(=O)[C@@H](CC(C)C)NC1=O [10h] (cyclo(L[dL][NMeL]L[dP]Y))

>  <remaining at 10 min>
71%

$$$$
>  <molecule>
CC(C)C[C@@H]1NC(=O)[C@H](Cc2ccc(O)cc2)NC(=S)[C@H]2CCCN2C(=O)[C@H](CC(C)C)NC(=O)[C@H](CC(C)C)NC(=O)[C@@H](CC(C)C)NC1=O [10d] (cyclo(LL[X6]L[dL]))

>  <remaining at 10 min>
79.4%

$$$$
>  <molecule>
CC(C)C[C@@H]1NC(=O)[C@H](Cc2ccc(O)cc2)NC(=O)[C@H]2CCCN2C(=O)[C@H](CC(C)C)NC(=S)[C@H](CC(C)C)NC(=O)[C@@H](CC(C)C)NC1=O [10b] (cyclo(L[dL][X5][dP]Y))

>  <remaining at 10 min>
71.7%

$$$$
>  <molecule>
CC(C)C[C@@H]1NC(=O)[C@H](Cc2ccc(O)cc2)NC(=O)[C@H]2CCCN2C(=O)[C@H](CC(C)C)NC(=O)[C@H](CC(C)C)NC(=O)[C@@H](CC(C)C)NC1=O [compound 10, cyclo(-D-Leu^1-Leu-Leu-D-Pro-Tyr-Leu^6-)] (cyclo(LL[dP]YL[dL]))

>  <remaining at 10 min>
57.1%

$$$$

Task: Field request: remaining at 10 min | item: CC(C)C[C@@H]1NC(=O)[C@@H](CC(C)C)NC(=O)[C@H](CC(C)C)NC(=S)[C@H](Cc2ccc(O)cc2)NC(=O)[C@H]2CCCN2C(=O)[C@H](CC(C)C)NC1=O [10e] (cyclo(LL[dP][X1][dL]))
Result: 76.6%

Task: Request: CC(C)C[C@@H]1NC(=O)[C@@H](CC(C)C)N(C)C(=O)[C@H](CC(C)C)NC(=O)[C@H](Cc2ccc(O)cc2)NC(=O)[C@H]2CCCN2C(=O)[C@H](CC(C)C)NC1=O [10g] (cyclo(LL[dP]YL[dNMeL]))
Result: 67%

Task: Request: CC(C)C[C@@H]1NC(=O)[C@H](Cc2ccc(O)cc2)NC(=O)[C@H]2CCCN2C(=O)[C@H](CC(C)C)NC(=O)[C@H](CC(C)C)NC(=S)[C@@H](CC(C)C)NC1=O [10a] (cyclo(L[dP]YL[X2]))
Result: 78.4%

Task: Request: CC(C)C[C@@H]1NC(=O)[C@@H](CC(C)C)NC(=O)[C@H](CC(C)C)NC(=O)[C@H](Cc2ccc(O)cc2)N(C)C(=O)[C@H]2CCCN2C(=O)[C@H](CC(C)C)NC1=O [10j] (cyclo(LL[dP][NMeY]L[dL]))
Result: 70%
